Tgt: T1, human CD3e/d (human, UniProt P07766 23-126; P04234 22-105)
T1 construct: Bought soluble protein; also called hCD3e/d; human CD3/ed (Sino CT038-H2508H)
Experimental protocol: SPR (Carterra LSA), mAb on chip
pKd: −log10 of the molar value.
Label scheme for pKd: lower than 7 is n, 7 and above is y.

Example entries begin here.
# Binder, Class label
rows = [
    ("mAb 224 (antibody, V domains shown, VH and VL only) VH: QVQLVESGGGVVQPGRSLRLSCAASGFTFSGYGMHWVRQAPGKGLEWVAIIYYNGKKEYYADSVKGRFTISRDNSKNMLYLQMNGLRAEDTAIYYCTRGEGYNWFDPWGQGTLVTVSS VL: EIVMTQSPATLSVSPGERTTLSCRASQSVSNNLAWYQQKPGQAPRLLIYGASTRATGIPARFSGSGSGTEFTLTISSLQSEDFAVYYCQQYNNWPLTFGGGTKVEIK", "y"),
    ("mAb 133 (antibody, V domains shown, VH and VL only) VH: EVQLVESGGGLVKTGGSLRLSCVASGFSFKKAWMSWVRQAPGKGLEWVGRIKRNTDGGTADYAAPVKGRFTLSRDDSKKTLFLQMNSLKTEDSAVYYCVTLDSSSYYVGYYYMDVWGKGTTVTVSS VL: DIQMTQSPSSVSASVGDRVSITCRASQDINNWLAWYQQKPGKAPKLLIYTASSLQSGVPSRFSGSGSGTDFTLTIGSLQPEDFATYYCQQAHSLPITFGQGTRLEIK", "y"),
    ("mAb 54 (antibody, V domains shown, VH and VL only) VH: EVQLEESGGGLVQPGGSLRLSCAASGFTFSRYSMNWVRQAPGKGLEWFSYISSSSRTIYYADSVKGRFTMSRDNAKNSLYLQMNSLRDEDTAVYFCARGDYYDSEGMDVWGKGTTVTVSS VL: DIQMTQSPSTLSASVGDRVTITCRASQTITTWLAWYQQKPGKAPKLLIYKASTLESGVPSRFSGSGSGTEFTLTISSLQPDDFATYHCQQYKTFSYTFGQGTKLDIK", "n"),
]

Now turn to the next binder.
Inquiry: Check if pKd >= 7 (inclusive). Item: mAb 205 (antibody, V domains shown, VH and VL only) VH: QVQLVESGGGVVQPGKSLRLSCAASGFTFSGYGMHWVRQAPGKGLEWVAIIYYNGKKEYYADSVKGRFTISRDNSKNTLYLQMNSLRAEDTAVYYCTRGEGYNWFDPWGQGTLVTVSS VL: EIVMTQSPATLSVSPGERATLSCRASQSVSSNLAWYQQKPGQAPRLLIYGASTRATGIPARFSGSGSGTEFTLTISSLQSEDFAVYYCKQYNNWPLTFGGGTKVEIK
Reply text: y
